List of Incidence: Number of mice with pulmonary fibrosis values.
system: pulmonary fibrosis; experiment: Pulmonary toxicity (pulmonary fibrosis) in mice; conditions: ICR mice, 5 mg/kg i.p. once a day for 10 days, 5 weeks observation; mice with fibrosis/total

Cc1c(N)nc(C(CC(N)=O)NCC(N)C(=O)NCCCNC(C)c2ccccc2)nc1C(=O)NC(C(=O)NC(C)C(O)C(C)C(=O)NC(C(=O)NCCc1nc(-c2nc(C(=O)NCCCN(C)CCCNCC3CCCCCCC3)cs2)cs1)C(C)O)C(OC1OC(CO)C(O)C(O)C1OC1OC(CO)C(O)C(OC(N)=O)C1O)c1cnc[nH]1 (centres unmarked) = 0/9

# input for lookup
Problem: Give pulmonary fibrosis Incidence: Number of mice with pulmonary fibrosis for the following compound: Cc1c(N)nc(C(CC(N)=O)NCC(N)C(=O)NCCCNC(C)c2ccccc2)nc1C(=O)NC(C(=O)NC(C)C(O)C(C)C(=O)NC(C(=O)NCCc1nc(-c2nc(C(=O)NCCCNC(C)c3ccccc3)cs2)cs1)C(C)O)C(OC1OC(CO)C(O)C(O)C1OC1OC(CO)C(O)C(OC(N)=O)C1O)c1cnc[nH]1 (centres unmarked)
Solution: 1/8

###

test system: pulmonary fibrosis; assay: Pulmonary toxicity (pulmonary fibrosis) in mice; conditions: ICR mice, 5 mg/kg i.p. once a day for 10 days; points 0, 1, 2, 4, 6
Reported Grade: Total score of pulmonary fibrosis/total number of samples is given for each of the following molecules.

Known Grade: Total score of pulmonary fibrosis/total number of samples results, listed for orientation:
CCCCCCCCNC(=O)C(N)CNC(CC(N)=O)c1nc(N)c(C)c(C(=O)NC(C(=O)NC(C)C(O)C(C)C(=O)NC(C(=O)NCCc2nc(-c3nc(C(=O)NCCCN(C)CCCNCC4CCCCCCC4)cs3)cs2)C(C)O)C(OC2OC(CO)C(O)C(O)C2OC2OC(CO)C(O)C(OC(N)=O)C2O)c2cnc[nH]2)n1 (stereo not shown) [Compound 59] = 0/27
Cc1c(N)nc(C(CC(N)=O)NCC(N)C(=O)NCCCN(C)CCCNCCc2ccc(Cl)cc2)nc1C(=O)NC(C(=O)NC(C)C(O)C(C)C(=O)NC(C(=O)NCCc1nc(-c2nc(C(=O)NCCCN(C)CCCNCCc3ccc(Cl)cc3)cs2)cs1)C(C)O)C(OC1OC(CO)C(O)C(O)C1OC1OC(CO)C(O)C(OC(N)=O)C1O)c1cnc[nH]1 (stereo not shown) [Compound 45] = 0/27
CCCCN(CCCC)CCCNC(=O)C(N)CNC(CC(N)=O)c1nc(N)c(C)c(C(=O)NC(C(=O)NC(C)C(O)C(C)C(=O)NC(C(=O)NCCc2nc(-c3nc(C(=O)NCCCN(C)CCCNCC4CCCCCCC4)cs3)cs2)C(C)O)C(OC2OC(CO)C(O)C(O)C2OC2OC(CO)C(O)C(OC(N)=O)C2O)c2cnc[nH]2)n1 (stereo not shown) [Compound 58] = 0/27

Problem: Supply Grade: Total score of pulmonary fibrosis/total number of samples value. Item: CCCCCCCCNC(=O)C(N)CNC(CC(N)=O)c1nc(N)c(C)c(C(=O)NC(C(=O)NC(C)C(O)C(C)C(=O)NC(C(=O)NCCc2nc(-c3nc(C(=O)NCCC[N+](C)(CCCN(Cc4ccccc4)Cc4ccccc4)Cc4ccccc4)cs3)cs2)C(C)O)C(OC2OC(CO)C(O)C(O)C2OC2OC(CO)C(O)C(OC(N)=O)C2O)c2cnc[nH]2)n1 (stereo not shown) [Compound 48]
Solution: 0/24
